Test system: CEM cells HIV-1 protection, formazan growth assay
Assay: NCI AIDS Antiviral Assay
observable: EC50

Which EC50 value belongs to Cc1ccc(S(=O)(=O)N2CCCCN(S(=O)(=O)c3ccc(C)cc3)Cc3ccccc3OCCOCCOc3c4cccc3Cc3cccc5c3OCCOCCOc3ccccc3CN(S(=O)(=O)c3ccc(C)cc3)CCCN(S(=O)(=O)c3ccc(C)cc3)Cc3ccccc3OCCOCCOc3c(cccc3C4)Cc3cccc(c3OCCOCCOc3ccccc3C2)C5)cc1 ?
> 100 µM

Param item: CC1=CC[C@@H]2C(=O)C=CC=C[C@H]12.[C-]#[O+].[C-]#[O+].[C-]#[O+].[Fe]
> 316 µM

Cool, now CC1=NN(c2ccccc2)C(=O)/C1=C1/C(=O)N(c2ccccc2)N=C1C
> 200 µM

Param item: N#C/C(=C\c1ccccc1Cl)C(=O)c1ccccc1
> 132 µM

Thanks! And CC(C)(C)C1CCC(=O)/C(=C/CC2CC(=O)N(c3ccccc3)C(=O)C2)C1 (stereo not drawn) ?
> 200 µM

Now the compound COc1ccc(-c2c3c(nc4nc(SCC(=O)c5ccc(Br)cc5)nc(N)c24)CCCC3)cc1OC
> 200 µM

Now consider Cc1ccccc1N=O .
> 200 µM

Another: C/C=C1\CN2CCc3c([nH]c4ccccc34)C2C=C1CCO (stereo not drawn)
> 170 µM

# repeat for O=C(C1OC1c1ccc([N+](=O)[O-])cc1)C12CC3CC(CC(C3)C1)C2 (stereo not drawn)
> 200 µM

Also, CC(=O)OC1CC2C(C)(C)CCCC2(C)C2C(=O)C(O)=C(C(C)C)C(=O)C12 (stereo not drawn) please.
> 200 µM

Quick one: Cc1ccc(NC(=O)/C(Cc2nc3ccc([N+](=O)[O-])cc3[nH]c2=O)=N\NC(=O)C[n+]2ccccc2)c(C)c1
> 234 µM

Queued: Cc1cc(O)c(C=O)c2c1C(=O)Oc1c(CO)c(O)c3c(c1O2)C(O)OC3=O (stereo not drawn)
> 57.5 µM

Another compound to look at: Cn1c(=O)c2c(nc(NCC[N+](C)(C)Cc3ccc(Cl)cc3)n2C)n(C)c1=O
> 295 µM

Try this compound next: O=c1oc2cc(O)ccc2c(O)c1C(c1ccccc1)c1c(O)c2ccc(O)cc2oc1=O
> 200 µM

Input Cc1ccc(C(=O)C2CC3(CCC2(O)c2ccc(C)cc2)CC(=O)Nc2ccccc2C3=O)cc1 (stereo not drawn)
> 200 µM

// next record COc1ccc(-c2c(C#N)c(-c3ccc(C)cc3)n(NS(=O)(=O)c3ccc(C)cc3)c(=O)c2C#N)cc1
> 200 µM

How about CN1CCCN2CCN(C)CCCN(CC1)CC2 ?
> 977 µM

Also check O=c1[nH]c(Nc2nc3ccccc3[nH]2)nc2c1CCC2
> 200 µM
